Value source: PubChem BioAssay (NCI)

compounds and their reported TGI
tested on: IGROV1 ovarian; assay: NCI tumour cell line growth inhibition, 48 h

{"columns": ["compound", "measureName", "result"],
 "data": [
  ["c1ccc(-n2nnnc2-c2cccc3ccccc23)cc1", "TGI", "> 100 µM"]
]}

Turning to the following compound.
Exam item: TGI of CN(C)Cc1cc(O)c(O)c(CN(C)C)c1 on IGROV1 ovarian?
Marked response: > 100 µM

---

compounds and their reported TGI
system: SNB-19 CNS; assay: NCI tumour cell line growth inhibition, 48 h

Please review the entries below; each comes with its answer.
{"columns": ["compound", "experimentalSystem", "TGI"],
 "data": [
  ["OC1(c2cc3ccccc3s2)CCCCC1", "SNB-19 CNS", "> 100 µM"],
  ["CCN(c1ccc(Br)cc1)c1c(Br)c(=O)nc2ccccn12", "SNB-19 CNS", "> 100 µM"],
  ["Cc1[nH]c2ccccc2c1C=Nc1ccc(N=Cc2c(C)[nH]c3ccccc23)cc1", "SNB-19 CNS", "> 100 µM"]
]}

Exam item: Please report the recorded TGI for O=C1CN(C(=O)c2ccccc2)Cc2[nH]c3ccccc3c21 .
Marked response: > 100 µM

Exam item: Please report the recorded TGI for CCCNC(C#N)c1ccc(C(C#N)NCCC)cc1 (configuration not stated) .
Marked response: > 100 µM

Exam item: Please report the recorded TGI for O=C(O)c1cc(N=Cc2ccccc2O)cc(C(=O)O)c1 .
Marked response: > 100 µM

Exam item: Please report the recorded TGI for O=c1c(C=Nc2ccc([N+](=O)[O-])cc2)c(O)n(-c2ccccc2)c(=O)n1-c1ccccc1 .
Marked response: > 100 µM

Exam item: Please report the recorded TGI for CN1CCN(Cc2ccc(NC(=O)c3ccc(C#Cc4c(N)ncc5ccc(F)cc45)cc3)cc2C(F)(F)F)CC1 .
Marked response: 1.91 µM

Exam item: Please report the recorded TGI for CCCCc1ccc(Nc2ncc3[nH]cnc3n2)cc1 .
Marked response: 44.4 µM

Exam item: Please report the recorded TGI for CCc1ccc2[nH]c(O)c(-c3[nH]c4ccccc4c3N=O)c2c1 .
Marked response: 31.6 µM

Exam item: Please report the recorded TGI for Cc1sc(/N=C/c2c[nH]c3ccccc23)c(C#N)c1C .
Marked response: > 100 µM

---

tested on: XF 498 CNS; experiment: NCI tumour cell line growth inhibition, 48 h
measureName: TGI

Please review the entries below; each comes with its answer.
{"columns": ["molecule", "TGI"],
 "data": [
  ["C=C1C(=O)OCC2C(C(=O)O)=CC3C(C)C(C)=CC123 (centres undefined)", "24.8 µM"],
  ["C1OC1CO[C@@H]1CO[C@H]2[C@@H]1OC[C@H]2OCC1CO1 (some centres undefined)", "> 100 µM"]
]}

Turning to the following molecule.
Exam item: Please report the recorded TGI for Cc1cc(S(=O)(=O)O)c(NC(=O)C(=O)C2C=CCS2(=O)=O)cc1Cl (centres undefined) .
Marked response: > 100 µM

---

system: OVCAR-8 ovarian; experiment: NCI tumour cell line growth inhibition, 48 h
measureName: TGI

Please review the entries below; each comes with its answer.
{"columns": ["compound", "TGI"],
 "data": [
  ["COc1ccc(N=N/C(=N/NC(=O)c2ccccc2)c2ccc(N(CCC#N)CCC#N)cc2C)cc1", "> 100 µM"],
  ["C/C(=N\\N=C(/[Se])N1CC2CCC(CC2)C1)c1ccccn1", "2.34 µM"]
]}

Exam item: Please report the recorded TGI for CCOC(=O)/C=C(\C(=O)OCC)n1ccc(N)nc1=O .
Marked response: > 100 µM

Exam item: Please report the recorded TGI for COC(OC)C1OC(CO)C(n2ccc(N)nc2=O)C1O (stereo unspecified) .
Marked response: > 100 µM

Exam item: Please report the recorded TGI for COc1ccc2c(c1)n([O-])c(C#N)c(N1CCN(c3ccc([N+](=O)[O-])cc3)CC1)[n+]2=O .
Marked response: > 100 µM

---

test system: SK-MEL-28 melanoma; assay: NCI tumour cell line growth inhibition, 48 h; in the data active = GI50 below about 0.43 µM; inactive = the rest
Parameter call: string, one of active, inactive

Sample answers from the record:
{"columns": ["molecule", "qualitativeLabel"],
 "data": [
  ["C#CC(F)(F)[C@]1(O)CC[C@H]2[C@@H]3CCC4=CC(=O)CCC4=C3[C@@H](c3ccc(C(C)=O)cc3)C[C@@]21C", "inactive"],
  ["Cc1cc(C)c(O)c(CN(C)Cc2cc(Cl)cc(Cl)c2O)c1", "inactive"],
  ["COc1ccccc1C#Cc1ccccc1C#CCCCCCC#Cc1ccccc1C#Cc1ccccc1OC", "inactive"],
  ["CCN(CCCl)CCCNc1c2ccccc2nc2ccc(OC)cc12", "inactive"],
  ["COc1ccc2c(c1)C(c1ccccc1Cl)=Nc1c(n[nH]c1C)N2", "inactive"]
]}

Exam item: Check the results log: what was the call for O=C(Nc1ccc(Cl)cc1)c1cc(-c2ccc(Cl)cc2)c2sc(=O)[nH]c2n1 ?
Marked response: inactive

Exam item: Check the results log: what was the call for C=C(c1ccc(C(=O)N(C)c2ccccc2N)cc1)C(C)N1C(=O)[C@H]2CCCN2C(=O)c2ccccc21 (stereo partly drawn) ?
Marked response: inactive

---

molecules and their reported TGI
tested on: NCI-H226 lung; experiment: NCI tumour cell line growth inhibition, 48 h
State the answer as a number, implicitly in µM.

Please review the entries below; each comes with its answer.
{"columns": ["molecule", "unit", "number"],
 "data": [
  ["Cn1cc(-c2cnc3ccc4ccc(CS(=O)(=O)NCc5ccccn5)cc4c(=O)c3c2)cn1", "µM", 36],
  ["CN(C)CCNC(=O)c1cccc2nc3c(nc12)-c1ccccc1C3=O", "µM", 39.6],
  ["CN1CCN(Cc2ccc(NC(=O)c3ccc(C#Cc4c(N)ncc5ccc(F)cc45)cc3)cc2C(F)(F)F)CC1", "µM", 2.6]
]}

Turning to the following molecule.
Exam item: TGI of CC(=O)OCC1OC(OC2CC3C(C)(C)C(O)CC[C@]3(C)C3CCC45CC4(CC[C@H]5C(C)CC(O)C4OC4(C)C)[C@]23C)C(O)C(O)C1O (some centres undefined) on NCI-H226 lung?
Marked response: 16.1

---

tested on: MOLT-4 leukemia; experiment: NCI tumour cell line growth inhibition, 48 h
measureName: TGI

Please review the entries below; each comes with its answer.
{"columns": ["compound", "result"],
 "data": [
  ["O=C(CCCCCCCCC(=O)N1C(=O)CC(=O)N(c2cccc(Cl)c2)C1=S)N1C(=O)CC(=O)N(c2cccc(Cl)c2)C1=S", "70.6 µM"],
  ["COc1ccccc1/C=N\\N=C(N/N=C/c1ccccc1OC)N/N=C/c1ccccc1OC", "12.1 µM"],
  ["N#CC1=C(N)NC(=O)NC12Nc1ccccc1S2 (centres undefined)", "> 100 µM"],
  ["COc1ccccc1C#Cc1ccccc1C#CCCCCCC#Cc1ccccc1C#Cc1ccccc1OC", "> 100 µM"],
  ["COC(=O)/C=C(/C(=O)OC)c1c(C)c(C)c2c(C)cc(C)cc(C)c1-2", "> 100 µM"],
  ["O=C1/C(=C/c2ccccc2[N+](=O)[O-])N=C(c2ccccc2)N1C1Nc2cc3c(cc2S1)NC(N1C(=O)/C(=C/c2ccccc2[N+](=O)[O-])N=C1c1ccccc1)S3 (centres undefined)", "> 100 µM"],
  ["O=C1C(=O)N(c2ccc(Cl)cc2Cl)C(=O)C(=O)C1c1nc2ccccc2o1", "> 100 µM"],
  ["CCCNC(C#N)c1ccc(C(C#N)NCCC)cc1 (centres undefined)", "> 100 µM"]
]}

Turning to the following compound.
Exam item: Please report the recorded TGI for CCOC(=O)CNC(=O)C(C)NC(=O)C(NC(=O)CC(c1ncc[nH]1)c1ncc[nH]1)C(C)CC (centres undefined) .
Marked response: > 100 µM

---

tested on: HT29 colon; assay: NCI tumour cell line growth inhibition, 48 h
measureName: TGI

Please review the entries below; each comes with its answer.
{"columns": ["molecule", "TGI"],
 "data": [
  ["Cc1ccc2c(c1)NC(=O)CC(c1ccccc1)=N2", "> 100 µM"],
  ["O=C1/C(=C/c2ccccc2[N+](=O)[O-])N=C(c2ccccc2)N1C1Nc2cc3c(cc2S1)NC(N1C(=O)/C(=C/c2ccccc2[N+](=O)[O-])N=C1c1ccccc1)S3 (centres undefined)", "> 100 µM"],
  ["O=C1Nc2cc([N+](=O)[O-])ccc2NC1/C(=N\\Nc1ccccc1)C(O)c1cccc([N+](=O)[O-])c1 (centres undefined)", "> 100 µM"]
]}

Exam item: Please report the recorded TGI for N#CCc1ncc(-c2ccc(C(F)(F)F)cc2)c(NC2CCCCCC2)n1 .
Marked response: > 10 µM

Exam item: Please report the recorded TGI for Cc1cc(S(=O)(=O)O)c(NC(=O)C(=O)C2C=CCS2(=O)=O)cc1Cl (centres undefined) .
Marked response: > 100 µM
